Provenance of the data: patent US20200216416A1

# tested_target: human MET kinase D1228N (Homo sapiens, UniProt P08581, D1228N)
# Construct: GST-tagged recombinant human MET kinase domain
# Sequence (P08581 1078-1345 D1228N): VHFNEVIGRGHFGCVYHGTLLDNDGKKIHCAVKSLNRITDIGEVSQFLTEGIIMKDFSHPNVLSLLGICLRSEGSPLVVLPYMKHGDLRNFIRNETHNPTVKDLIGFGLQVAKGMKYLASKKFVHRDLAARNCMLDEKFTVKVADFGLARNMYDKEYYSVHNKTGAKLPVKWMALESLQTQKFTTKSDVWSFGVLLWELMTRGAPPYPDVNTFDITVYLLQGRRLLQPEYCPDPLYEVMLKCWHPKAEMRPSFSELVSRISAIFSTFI
# test_protocol: c-Met Enzyme Assay, D1228N mutant
# measurement_conditions: averaged IC50; D1228N 2 nM; 60-minute incubation at 22° C.; read-out: D1228 N IC50
Field 'label' (enum: rule met / rule not met). Set to rule met when IC50 is strictly under 20 nM; else rule not met.

1. COc1cc2nccc(Oc3ccc(NC(=O)c4cn(CC(=O)N(C)C)cc(-c5ccc(F)cc5)c4=O)nc3)c2cc1OC [Example 23]; rule met
2. COc1ccc(-c2cn(C(C)C)cc(C(=O)Nc3ccc(Oc4ccnc5cc(OC)c(OC)cc45)cn3)c2=O)c(F)c1 [Example 31]; rule not met
3. COc1cc2c(Oc3ccc(NC(=O)c4cn(C(C)C)cc(-c5ccc(F)cc5)c4=O)nc3)ccnc2cc1F [Example 49]; rule not met
4. CCCn1cc(C(=O)Nc2ccc(Oc3ccnc4cc(OC)c(OC)cc34)cn2)c(=O)c(-c2ccc(F)cc2)c1 [Example 10]; rule met

Task item: Given the entry CCC(CC)n1cc(C(=O)Nc2ccc(Oc3ccnc4cc(OC)c(OC)cc34)cn2)c(=O)c(-c2ccc(F)cc2F)c1 [Example 16] , would its reported IC50 be below 20 nM?
Reply: rule met

Task item: Given the entry CCOc1ccc2nccc(Oc3ccc(NC(=O)c4cn(C(C)C)cc(-c5ccc(F)cc5)c4=O)nc3)c2c1 [Example 51] , would its reported IC50 be below 20 nM?
Reply: rule not met

Task item: Given the entry COc1cc2c(Oc3ccc(NC(=O)c4cn(C(C)C)cc(-c5ccc(F)cc5)c4=O)nc3)ccnc2cc1OCCCN1CCOCC1 [Example 56] , would its reported IC50 be below 20 nM?
Reply: rule met

Task item: Given the entry COc1cc2nccc(Oc3ccc(NC(=O)c4cn(C(C)C)cc(-c5ccc(F)c(Cl)c5)c4=O)nc3)c2cc1OC [Example 21] , would its reported IC50 be below 20 nM?
Reply: rule not met

Task item: Given the entry COc1cc2nccc(Oc3ccc(NC(=O)c4cn(C5CCOCC5)cc(-c5ccc(F)cc5)c4=O)nc3)c2cc1OC [Example 12] , would its reported IC50 be below 20 nM?
Reply: rule met

Task item: Given the entry COc1cc(-c2cn(C(C)C)cc(C(=O)Nc3ccc(Oc4ccnc5cc(OC)c(OC)cc45)cn3)c2=O)ccc1F [Example 20] , would its reported IC50 be below 20 nM?
Reply: rule met

Task item: Given the entry COc1cc2nccc(Oc3ccc(NC(=O)c4cn(CCC(C)C)cc(-c5ccc(Cl)cc5)c4=O)nc3)c2cc1OC [Example 37] , would its reported IC50 be below 20 nM?
Reply: rule met

Task item: Given the entry COc1cc2nccc(Oc3ccc(NC(=O)c4cn(C)cc(-c5ccc(F)cc5)c4=O)nc3)c2cc1OC [Example 2] , would its reported IC50 be below 20 nM?
Reply: rule not met
